test system: Staphylococcus aureus; assay: Antibacterial activity against Staphylococcus aureus ATCC25923 incubated for 16 to 20 hrs by broth microdilution method; assay type: functional; conditions: time 16-20 hrs
# key: entry, value: MIC

entry_smiles	MIC
CC[C@H]1OC(=O)C[C@@H](O)[C@H](C)[C@@H](O[C@@H]2O[C@H](C)[C@@H](O)[C@H](N(C)C)[C@H]2O)[C@@H](CCN(C)Cc2cn(-c3cnc4ccccc4c3)nn2)C[C@@H](C)C(=O)/C=C/C(C)=C/[C@@H]1CNc1ccc(C)cc1	4 µg/mL
CC[C@H]1OC(=O)C[C@@H](O)[C@H](C)[C@@H](O[C@@H]2O[C@H](C)[C@@H](O)[C@H](N(C)C)[C@H]2O)[C@@H](CCNCc2cn(-c3cnc4ccccc4c3)nn2)C[C@@H](C)C(=O)/C=C/C(C)=C/[C@@H]1CNCc1ccccc1	2 µg/mL
CC[C@H]1OC(=O)C[C@@H](O)[C@H](C)[C@@H](O[C@@H]2O[C@H](C)[C@@H](O)[C@H](N(C)C)[C@H]2O)[C@@H](CCN(C)Cc2cn(-c3cnc4ccccc4c3)nn2)C[C@@H](C)C(=O)/C=C/C(C)=C/[C@@H]1CNc1ccc(I)cc1	2 µg/mL
CC[C@H]1OC(=O)C[C@@H](O)[C@H](C)[C@@H](O[C@@H]2O[C@H](C)[C@@H](O)[C@H](N(C)C)[C@H]2O)[C@@H](CCN(C)Cc2cn(-c3cnc4ccccc4c3)nn2)C[C@@H](C)C(=O)/C=C/C(C)=C/[C@@H]1CO	1 µg/mL
